Organism: Homo sapiens
experiment: Inhibitory concentration for displacing [3H]iloprost from human platelet membrane at 5.4 nM at 37 degree C
pIC50: −log10 of the molar value.
endpoint label: pIC50

P: CC#CCC(C)[C@H](O)/C=C/[C@@H]1[C@H]2C/C(=C/CCCC(=O)O)C[C@H]2C[C@H]1O (stereo partly specified)
Q: Cn1cc(-c2nc(-c3ccccc3)c(-c3ccccc3)o2)c(-c2cccc(OCC(=O)O)c2)n1
-- ask Would you let me know which has the greater pIC50 value, P or Q ? Answer format: the label of the selected item.
-- reply P

A: O=C(O)COc1cccc(-c2ocnc2-c2nc(-c3ccccc3)c(-c3ccccc3)o2)c1
B: Cn1ncc(-c2nc(-c3ccccc3)c(-c3ccccc3)o2)c1-c1cccc(OCC(=O)O)c1
C: Cc1nc(-c2nc(-c3ccccc3)c(-c3ccccc3)o2)c(-c2cccc(OCC(=O)O)c2)o1
-- ask // smallest pIC50 at index 0, largest at the end Note for the reader: the ranking is given by listing the labels in the order requested.
-- reply B, C, A
